tested on: zebrafish Peroxisome Proliferator-activated Receptor alpha (PPARa), gene 563298; assay: ATG_zfPPARa_EcoTox2: Attagene TRANS-FACTORIAL EcoTox-2 HepG2 Assay for zebrafish Peroxisome Proliferator-activated Receptor alpha (PPARa)
Results filed as inconclusive are left out. The source made the active and inactive calls. The calls were made as follows: active = hit-call score of the fitted dose curve at least 0.9, where 1 is the maximum; inconclusive = response in the unintended direction; inactive = score below 0.9.
Your answer must be one of the following: Y for active, N for inactive

Molecule: Cc1cccc(Nc2cc(Cl)nc(SCC(=O)O)n2)c1C
Group label: Y

(Q) What was the test verdict on CC(C)OC(=O)C(C)(C)Oc1ccc(C(=O)c2ccc(Cl)cc2)cc1 ?
(A) N

(Q) # lookup: test call for Cc1ccc(C)c(OCCCC(C)(C)C(=O)O)c1
(A) Y

(Q) What was the test verdict on CC(C)(Oc1ccc(C2CC2(Cl)Cl)cc1)C(=O)O (centres undefined) ?
(A) Y

Reference source for all entries: PubChem BioAssay AID2284350
